# experimental.system: Cytochrome P450 2C9 (Homo sapiens)
# experimental.protocol: Cytochrome panel assay with activity outcomes
# settings: recombinant CYP, pro-luciferin dealkylation, luminescence, p450-cyp2c9; series mostly up to 57.1 µM
About 4,000 (25%) of roughly 16,000 compounds were called active. Roughly 26% stayed inconclusive and do not appear here. The call rests on the fitted dose curve; in most records, active means well fitted curve in the direction sought with a large enough effect; inconclusive means small, poorly fitted or top-dose-only effect, or effect the other way; inactive means no such curve, though single readings can be large or run the other way. These entries were drawn from the full list.
Give your call using only these classes: class 1 = active, class 0 = inactive

// below: answered molecules
Cc1ccc(OCc2ccc(C(=O)Nc3nccs3)o2)cc1C: class 1
CCCCn1c(SCc2c(C)noc2C)nc2cc(S(N)(=O)=O)ccc21: class 1
O=S(=O)(c1ccc(F)cc1)N1CCCC(CO)C1 (stereo not given): class 0

Call for entry "CCCC(=O)Nc1cc(-c2cn3cccnc3n2)ccc1OC" :
class 0

Just curious, what result did "CC(C)NC(=O)N1CCCC2(CCN(C(=O)c3cc(C(F)(F)F)cc(C(F)(F)F)c3)CC2)C1" get here?
class 0

====

# experimental.system: Cytochrome P450 2C9 (Homo sapiens) (UniProt P11712)
# Sequence (P11712 whole entry, looked up): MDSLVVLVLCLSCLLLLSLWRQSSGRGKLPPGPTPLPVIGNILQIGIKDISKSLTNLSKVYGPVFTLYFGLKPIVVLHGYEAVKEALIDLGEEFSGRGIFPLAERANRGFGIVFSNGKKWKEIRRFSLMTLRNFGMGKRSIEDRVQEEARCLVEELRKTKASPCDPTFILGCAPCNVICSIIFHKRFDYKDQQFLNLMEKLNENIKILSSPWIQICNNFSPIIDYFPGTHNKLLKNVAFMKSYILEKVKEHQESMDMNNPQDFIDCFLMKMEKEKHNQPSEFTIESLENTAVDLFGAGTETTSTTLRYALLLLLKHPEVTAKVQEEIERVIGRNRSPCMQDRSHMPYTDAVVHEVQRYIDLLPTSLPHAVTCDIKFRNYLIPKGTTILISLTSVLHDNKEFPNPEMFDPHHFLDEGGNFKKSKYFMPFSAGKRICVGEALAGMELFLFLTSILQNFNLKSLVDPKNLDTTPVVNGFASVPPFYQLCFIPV
# experimental.protocol: Cytochrome panel assay with activity outcomes
# settings: recombinant CYP, pro-luciferin dealkylation, luminescence, p450-cyp2c9; series mostly up to 57.1 µM
Hit rate of the full screen: of about 16,000 compounds, about 4,000 (25%) were called active. Inconclusive results (about 26%) are left out. Calls come from the whole dose curve; as a rule, active = well fitted curve in the direction sought with a large enough effect; inconclusive = small, poorly fitted or top-dose-only effect, or effect the other way; inactive = no such curve, though single readings can be large or run the other way. These entries were drawn from the full list.
Returns: one label drawn from active, inactive

COc1ccc(-c2cc(C(=O)NCc3cccnc3)no2)cc1OC: inactive
Cc1cc(C)cc(NC(=O)C/C(N)=N/O)c1: inactive
CCOc1cccc(CNCCNC(=O)c2nonc2N)c1: inactive
Cc1cccc(OCC(=O)N/N=C\C=C\c2ccc3c(c2)OCO3)c1C: inactive
Cc1ccccc1CS(=O)(=O)Cc1ccc(C(=O)NCc2cccnc2)o1: active

Lab log entry: "CCOC(=O)C[n+]1c(C)sc2ccc(OC)cc21" — outcome as called in the assay?
active

Fill in: this test's call for "CCOc1ccc(OCc2ccc(C(=O)NCc3cccnc3)o2)cc1" is ___
active

How did this test come out for "O=C(/C=C/c1cccc(Cl)c1)Nc1ccncc1" ?
active

Record request — test call for "Clc1ccccc1OCCCCN1CCCC1"
inactive

Lab log entry: "c1cncc(-c2nccc(NCc3cccs3)n2)c1" — outcome as called in the assay?
active

Hello, I am checking results. What call was entered for CCC(C)(C(=O)NC1CCCC1)N(CC1CCCO1)C(=O)c1ccc2c(c1)OCO2 (stereo unspecified) ?
inactive

====

# experimental.system: Cytochrome P450 2C9 (Homo sapiens) (UniProt P11712)
# experimental.protocol: Cytochrome panel assay with activity outcomes
# settings: recombinant CYP, pro-luciferin dealkylation, luminescence, p450-cyp2c9; series mostly up to 57.1 µM
Hit rate of the full screen: of about 16,000 compounds, about 4,000 (25%) were called active. Inconclusive results (about 26%) are left out. Calls follow the shape of the dose curve; as a rule, active = well fitted curve in the direction sought with a large enough effect; inconclusive = small, poorly fitted or top-dose-only effect, or effect the other way; inactive = no such curve, though single readings can be large or run the other way. Only a sample is shown.
Give your call using only these classes: true = active, false = inactive

Hello, I am checking results. What call was entered for "Cc1ccc(NC(=O)CCC(=O)NNC(=O)c2cccs2)c(C)c1" ?
false

Give the logged outcome of this assay for the following compound: "O=C(CN1CCN(Cc2ccccc2)CC1)N1CCCc2c1c(=O)oc1ccc(O)cc21"
true

Returns: the outcome recorded for "COc1ccc(OC)c(CNC(=O)CCNC(=O)Cn2ccc3ccccc3c2=O)c1" in this assay.
false

====

# experimental.system: Cytochrome P450 2C9 (Homo sapiens) (UniProt P11712)
# experimental.protocol: Cytochrome panel assay with activity outcomes
# settings: recombinant CYP, pro-luciferin dealkylation, luminescence, p450-cyp2c9; series mostly up to 57.1 µM
Out of some 16,000 compounds screened, about 4,000 (25%) were called active. Another 26% or so got no clear call; they are omitted. Only a sample is shown.
reported.property: AC50

Example entries and their recorded answers appear below.
O=S(=O)(c1cccc2nsnc12)N1CCCC1: 3.55 µM (active)
CCCSc1nnc2n(N)c(=O)c3ccccc3n12: inactive
CC(=O)Nc1ccc(NC(=O)C2CCN(S(=O)(=O)c3cccc4nonc34)CC2)cc1: inactive
COc1ccc(CCNC(=O)C2CCN(S(=O)(=O)c3cccc4nsnc34)CC2)cc1OC: inactive

Note: attention shifts to another entry.
For the compound "O=S(=O)(c1cccc2cnccc12)N1CCNCC1" , what AC50 is on record?
inactive

====

# experimental.system: Cytochrome P450 2C9 (Homo sapiens) (UniProt P11712)
# experimental.protocol: Cytochrome panel assay with activity outcomes; on activity, negative = inhibition: on the % scale 0 is the no-effect control and ±100 the full control effect
# settings: recombinant CYP, pro-luciferin dealkylation, luminescence, p450-cyp2c9; series mostly up to 57.1 µM
Screen size: about 16,000 compounds; about 4,000 (25%) were called active. Another 26% or so got no clear call; they are omitted. These entries were drawn from the full list.
reported.property: activity, negative = inhibition

Please go through the list and note activity, negative = inhibition for each molecule.
1. C/C(CCN1CCCCc2nc(C)c(C)cc21)=N\O[C@@H](C)CN1CCCCc2nc(C)c(C)cc21
2. O=C(O)[C@@H]1[C@@H](C(=O)O)[C@]23C[C@@]2(C(=O)O)[C@]2(C(=O)O)CCC3=C3CCCC312
3. O=c1n(-c2ccccc2)c(=O)n2n1CC[C@H]1/C(=N\OCc3ccccc3)[C@H]3O[C@@H]3[C@@H](O)[C@@H]12
4. CS(=O)(=O)Nc1cccc(-c2cncnc2Nc2ccc(F)cc2)c1
5. CS(=O)(=O)Nc1cccc(-c2cncnc2Nc2ccccc2)c1
6. O=C(O)Cc1c(O)ccc2ccccc12

["7.62% [at 11.4 µM] (inactive)", "14% [at 11.4 µM] (inactive)", "25.1% [at 11.4 µM] (inactive)", "-8.15% [at 2.29 µM] (inactive)", "-11.4% [at 2.29 µM] (inactive)", "-24.2% [at 11.4 µM] (inactive)"]

====

# experimental.system: Cytochrome P450 2C9 (Homo sapiens) (UniProt P11712)
# experimental.protocol: Cytochrome panel assay with activity outcomes
# settings: recombinant CYP, pro-luciferin dealkylation, luminescence, p450-cyp2c9; series mostly up to 57.1 µM
In all, about 16,000 compounds went through this assay and about 4,000 (25%) were called active. Roughly 26% stayed inconclusive and do not appear here. The call rests on the fitted dose curve; in most records, active means well fitted curve in the direction sought with a large enough effect; inconclusive means small, poorly fitted or top-dose-only effect, or effect the other way; inactive means no such curve, though single readings can be large or run the other way. The list is a sample of the results.
Response enum: active, inactive

COc1c(C)c2c(c(O)c1C/C=C(\C)CCC(=O)O)C(=O)OC2: inactive

Could you please tell me the result logged for "Cc1cc(C(=O)Nc2c(C)n(C)n(-c3ccccc3)c2=O)c2ccccc2n1" in this assay?
inactive

Recorded call for Cc1cc(C(=O)NNC(=S)NC(C)c2ccccc2)c2ccccc2n1 (stereo not drawn) ?
active

====

# experimental.system: Cytochrome P450 2C9 (Homo sapiens)
# experimental.protocol: Cytochrome panel assay with activity outcomes
# settings: recombinant CYP, pro-luciferin dealkylation, luminescence, p450-cyp2c9; series mostly up to 57.1 µM
Out of some 16,000 compounds screened, about 4,000 (25%) were called active. Roughly 26% stayed inconclusive and do not appear here. The call rests on the fitted dose curve; in most records, active means well fitted curve in the direction sought with a large enough effect; inconclusive means small, poorly fitted or top-dose-only effect, or effect the other way; inactive means no such curve, though single readings can be large or run the other way. The list is a sample of the results.
Use one of these outcomes when replying: active, inactive

These solved cases illustrate the format of a correct answer.
COc1cccc(-n2ccnc2SCC(=O)Nc2nccs2)c1: active
COc1ccc(-n2c(=O)c(-c3cccs3)nc3cnc(N4CCNCC4)nc32)cc1: inactive
CCNc1ncc2nc(-c3ccccc3)c(=O)n(Cc3cccc(OC)c3)c2n1: inactive

Entry "COc1cccc(Cn2c(=O)c(-c3ccccc3)nc3cnc(OC)nc32)c1" : call = ?
active

Test call for this compound, please: CC(C)(C)OC(=O)N1CCCC1C(=O)NCCc1ccccc1 (stereo not given)
inactive

Kindly provide the recorded test outcome for the following compound: "COc1cccc(Cn2c(=O)c(-c3cccc(C#N)c3)nc3cnc(OC)nc32)c1"
active

Kindly provide the recorded test outcome for the following compound: "CC(=O)Nc1ccc(S(=O)(=O)N=S(C)C)cc1"
inactive

Each compound tested received a call. Report the one for "O=C(c1cc(Cl)c(=O)n(Cc2ccc(Cl)cc2)c1)N1CCOCC1" .
inactive

For this compound, state the assay outcome: "CN1CC[C@@]2(CCCN(C(=O)c3cccn3C)C2)C1"
inactive

Tell me the assay call for "CCS(=O)(=O)N1CCC(C(=O)NCCN2CCN(Cc3ccccc3)CC2)CC1" please.
inactive

What classification did "Cc1cccc(OCC(=O)NNC(=O)CSc2ncc(C#N)c(N)n2)c1" end up with in this test?
inactive

Record request — test call for "O=C(CCc1ccccc1)NNC(=O)c1ccco1"
inactive

====

# experimental.system: Cytochrome P450 2C9 (Homo sapiens) (UniProt P11712)
# experimental.protocol: Cytochrome panel assay with activity outcomes; on activity, negative = inhibition: on the % scale 0 is the no-effect control and ±100 the full control effect
# settings: recombinant CYP, pro-luciferin dealkylation, luminescence, p450-cyp2c9; series mostly up to 57.1 µM
The campaign covered roughly 16,000 compounds. About 4,000 (25%) were called active. Another 26% or so got no clear call; they are omitted. The list is a sample of the results.
reported.property: activity, negative = inhibition

COc1ccccc1-c1cncnc1Nc1ccc(F)cc1: -21.5% [at 2.29 µM] (inactive)
CNc1ccnc(-c2ccccc2C(F)(F)F)n1: 1.23% [at 2.29 µM] (inactive)

Please supply activity, negative = inhibition for each of the following items, keeping them in order.
1. CN(C)Cc1ccccc1-c1cc(N(C)Cc2ccco2)ncn1
2. CCN1C(=O)[C@H]2[C@@H]3[C@H](O)C=CC(=O)[C@H]3CC[C@H]2C1=O
3. Cc1ccc2[nH]c3nc(CCCn4ccnc4-c4ccccc4)nnc3c2c1
4. c1ccc(Nc2nc(-c3ccoc3)nc3ccccc23)cc1
5. CCOC(=O)CCN1C(=O)[C@H]2[C@H]3[C@H](O)[C@H](O)C/C(=N/OC[C@@H](O)COCc4ccco4)[C@H]3CC[C@@H]2C1=O
6. CON(C)C(=O)c1nnc2c(n1)[nH]c1ccccc12

["-3.1% [at 2.29 µM] (inactive)", "17.9% [at 11.4 µM] (inactive)", "-17.6% [at 11.4 µM] (inactive)", "-10.3% [at 2.29 µM] (inactive)", "10.4% [at 11.4 µM] (inactive)", "-19% [at 11.4 µM] (inactive)"]

# map each compound to its activity, negative = inhibition
1. CN(Cc1ccco1)c1ccnc(-c2ccccc2C(F)(F)F)n1
2. C[C@@H](c1ccccc1)N1C(=O)[C@H]2[C@H]3[C@H](O)[C@H](O)C/C(=N/OC[C@@H](O)COCc4ccco4)[C@@H]3CC[C@@H]2C1=O
3. Cc1noc(C)c1-c1ccc2ncnc(N(C)C)c2c1
4. Cc1cnc(CNc2ccnc(-c3ccccc3C(F)(F)F)n2)cn1
5. CN(Cc1ccco1)c1ccnc(-c2cccnc2)n1
6. FC(F)(F)c1ccccc1-c1nc(NCCN2CCOCC2)c2ccccc2n1

["-4.94% [at 2.29 µM] (inactive)", "2.8% [at 11.4 µM] (inactive)", "10.9% [at 2.29 µM] (inactive)", "8.33% [at 2.29 µM] (inactive)", "16.4% [at 2.29 µM] (inactive)", "12.6% [at 2.29 µM] (inactive)"]

Using the record for "COc1ccc2c3c([nH]c2c1)[C@H]1C[C@@H]2[C@@H](C[C@@H](O)[C@H](OC)[C@H]2C(=O)O)CN1CC3" , report its activity, negative = inhibition.
4.43% [at 11.4 µM] (inactive)
